Here's what we have: GI50 numbers for A431 cells.

// query Give the reported GI50 for this molecule. `C=CC(=O)N1CCC(Nc2cc3c(Nc4ccc(Oc5ccnc(N6CCC(O)CC6)c5)c(Cl)c4)ncnc3cc2OC)CC1`
// result 0.3 to 0.6 µM

---

- Tested on: A431 cells
- protocol: Cell growth inhibition (CellTiter-Glo, 3 days) in A431
- Format: cell-based
- studyConditions: Homo sapiens, A-431, 72 h, 3 days after administration
valueType: GI50

C=CC(=O)N1CCC(Nc2cc3c(Nc4ccc(Oc5ccnc(C(=O)N(C)C)c5)cc4F)ncnc3cc2OC)CC1 [Example 182] = ≥ 1 µM
C=CC(=O)N1CCC(Oc2cc3c(Nc4ccc(Oc5ccnc(N6CCN(C(C)C)CC6)c5)cc4F)ncnc3cc2OC)CC1 [Example 157] = ≥ 1 µM
C=CC(=O)N1CCC(Nc2cc3c(Nc4ccc(Oc5ccnc(NC6COC6)c5)cc4F)ncnc3cc2OC)CC1 [Example 183] = ≥ 1 µM

// query Give the reported GI50 for this molecule. C=CC(=O)N1CCC(Nc2cc3c(Nc4ccc(Oc5ccn(-c6cnc(C)c(Cl)c6)n5)cc4F)ncnc3cc2OC)CC1 [Compound 10]
// result 0.3 to 0.6 µM

// query Give the reported GI50 for this molecule. C=CC(=O)N1CCC(Nc2cc3c(Nc4ccc(Oc5ccnc(-c6cncs6)c5)cc4F)ncnc3cc2OC)CC1 [Example 42]
// result ≥ 1 µM

Taken from patent US20240398805A1.
